Recorded protein stability index values for a group of variants are listed next.
B1: TAF7L (parent)
chain: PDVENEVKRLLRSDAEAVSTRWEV

- Variants of: B1
- Assay Remarks: protein stability index of a GFP-peptide fusion (GPS, HEK-293T) (PSI 1-6); higher = more stable;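 note: lentivirally expressed fusions sorted by FACS into six bins by GFP to DsRed ratio, PSI derived from sequencing read proportions per bin multiplied by bin number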
- Condition: c terminus: a fixed tail appended
Observed Property: protein stability index

>>> print(df.to_string())
    change  observed_value
 0    V24M            4.29
 1    V18Q             3.9
 2     E6S            3.21
 3    A15F            2.57
 4    A15S            3.22
 5    R21V             3.2
 6     R9P            4.17
 7     E4F               1
 8    V24E            4.13
 9    V24A            4.61
10     E6C             2.9
11     R9G            3.57
12    R21C            2.61
13     R9M            3.96
14    A17N            3.61
15    W22H            4.79
16    S13H            2.53
17    E23P             3.2
18     D2Y            2.81
